Source: ChEMBL document CHEMBL1140903

Test system: Rattus norvegicus
Assay: Plasma concentration in carrageenan-induced paw edema Sprague-Dawley rat model at 15 mg/kg, iv
Conditions: in vivo

| compound | unit.spec | concentration |
| --- | --- | --- |
| O=C(O)c1ccc(CCCc2c(CCNS(=O)(=O)Cc3ccc(Cl)c(Cl)c3)n(C(c3ccccc3)c3ccccc3)c3ccc(Cl)cc23)cc1 [EFIPLADIB] | µM | 5.3 |

---

System: Rattus norvegicus
Assay: Plasma concentration in carrageenan-induced paw edema Sprague-Dawley rat model at 15 mg/kg, iv
Type: ADME, organism-based
Design: dose 15 mg/kg, route intravenous
Settings: in vivo
parameter.measured: concentration (nM)

| molecule | parameter.measured | reported.measurement |
| --- | --- | --- |
| O=C(O)c1ccc(OCCc2c(CCNS(=O)(=O)CCN3CCSCC3)n(C(c3ccccc3)c3ccccc3)c3ccc(Cl)cc23)cc1 | concentration | 270 |
| CC1CCC(C)N1CCS(=O)(=O)NCCc1c(CCOc2ccc(C(=O)O)cc2)c2cc(Cl)ccc2n1C(c1ccccc1)c1ccccc1 (stereo not drawn) | concentration | 232 |
| O=C(O)c1ccc(CCCc2c(CCNS(=O)(=O)CCN3CCOCC3)n(C(c3ccccc3)c3ccccc3)c3ccc(Cl)cc23)cc1 | concentration | 163 |

---

Target protein (sequence): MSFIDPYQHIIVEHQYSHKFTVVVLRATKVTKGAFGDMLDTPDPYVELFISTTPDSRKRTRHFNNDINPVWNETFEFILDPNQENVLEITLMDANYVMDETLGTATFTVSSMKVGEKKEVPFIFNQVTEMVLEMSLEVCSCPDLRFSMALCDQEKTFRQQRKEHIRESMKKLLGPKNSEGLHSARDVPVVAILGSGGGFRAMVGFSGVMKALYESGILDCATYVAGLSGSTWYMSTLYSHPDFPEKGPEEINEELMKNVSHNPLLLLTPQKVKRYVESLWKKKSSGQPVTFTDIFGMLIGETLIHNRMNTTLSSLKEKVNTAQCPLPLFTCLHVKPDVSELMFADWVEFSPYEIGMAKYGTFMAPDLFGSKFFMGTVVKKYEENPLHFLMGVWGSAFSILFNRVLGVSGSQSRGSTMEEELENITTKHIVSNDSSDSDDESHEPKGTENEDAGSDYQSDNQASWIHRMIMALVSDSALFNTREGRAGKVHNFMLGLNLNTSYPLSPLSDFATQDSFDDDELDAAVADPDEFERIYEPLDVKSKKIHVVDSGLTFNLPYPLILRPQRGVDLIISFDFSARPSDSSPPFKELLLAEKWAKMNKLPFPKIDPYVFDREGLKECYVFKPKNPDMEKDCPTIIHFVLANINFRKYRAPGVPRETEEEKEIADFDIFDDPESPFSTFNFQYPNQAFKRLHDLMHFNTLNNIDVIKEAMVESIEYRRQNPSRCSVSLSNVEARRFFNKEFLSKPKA
pIC50: −log10 of the molar value.
Answer not fulfilled if pIC50 is under 7, and fulfilled if it is 7 or more.

| structure | class.name |
| --- | --- |
| C[C@@H]1CCC[C@H](C)N1CCS(=O)(=O)NCCc1c(CCOc2ccc(C(=O)O)cc2)c2cc(Cl)ccc2n1C(c1ccccc1)c1ccccc1 | not fulfilled |
| CN1CCN(Cc2ccccc2CS(=O)(=O)NCCc2c(CCCc3ccc(C(=O)O)cc3)c3cc(Cl)ccc3n2C(c2ccccc2)c2ccccc2)CC1 | fulfilled |
| O=C(O)c1ccc(OCCc2c(CCNS(=O)(=O)CCn3ccnn3)n(C(c3ccccc3)c3ccccc3)c3ccc(Cl)cc23)cc1 | not fulfilled |
| CC(=O)N1CCN(Cc2ccccc2CS(=O)(=O)NCCc2c(CCCc3ccc(C(=O)O)cc3)c3cc(Cl)ccc3n2C(c2ccccc2)c2ccccc2)CC1 | fulfilled |
| O=C(O)c1ccc(OCCc2c(CCNS(=O)(=O)CCN3CCOCC3)n(C(c3ccccc3)c3ccccc3)c3ccc(Cl)cc23)cc1 | not fulfilled |
| O=C(O)c1ccc(OCCc2c(CCNS(=O)(=O)CCN3CCNC3=S)n(C(c3ccccc3)c3ccccc3)c3ccc(Cl)cc23)cc1 | not fulfilled |
